All values here come from PubChem BioAssay (NCI).

Kindly state GI50 for each of the entries shown.
# Tested on: PC-3 prostate
# Test Description: NCI tumour cell line growth inhibition, 48 h

Consider the following illustrative entries.
O=C1/C(=C/c2cccc([N+](=O)[O-])c2)COc2ccc(O)c(O)c21	1.16 µM
COc1ccc(C(=O)Cn2c(C(=O)c3ccc(Cl)cc3)nc3ccccc32)cc1	21.2 µM
O=C(/C=C/c1ccco1)c1ccc(Nc2nc(Nc3ccc(F)cc3)nc(Nc3ccc(Cl)cc3)n2)cc1	1.54 µM

Recorded GI50 of Nc1ccccc1C#CC#Cc1ccccc1N , please.
23.1 µM

====

# Tested on: UACC-62 melanoma
# Test Description: NCI tumour cell line growth inhibition, 48 h
Test Readout: TGI

Consider the following illustrative entries.
CC(C)=CCC[C@]1(C)CC[C@]2(C)C3CCC(=C(C)C)[C@@H](CCCO)[C@]3(C)CC[C@@]2(C)C1 (stereo partly drawn)	> 100 µM
COc1ccc2[nH]c(CCNC(=O)c3cc([N+](=O)[O-])cc([N+](=O)[O-])c3)cc2c1	> 100 µM
CC(=O)N(C)OC(=O)CC(=O)c1ccccc1	> 100 µM
CNC(=S)/C(=N\Nc1nc[nH]c1C(N)=O)C(N)=S	> 92.8 µM
CC(=O)N1CCC2(C=Nc3ccccc32)CC1	> 100 µM
CCCCCC(CN1CCOCC1)C(=O)/C=C/c1ccccc1 (stereo not drawn)	3.37 µM
CC(=O)Nc1ccc(/C=C(\NC(=O)c2ccccc2)c2nc3ccc4c(c3[nH]2)C(=O)c2ccccc2C4=O)cc1	> 100 µM
O=C(O)c1ccc(S(=O)(=O)c2ccccc2)c([N+](=O)[O-])c1	> 100 µM
CCOP(=O)(OCC)C(NC(=O)OCC(Cl)(Cl)Cl)n1nnc(C(=O)OC)c1C(=O)OC (stereo not drawn)	> 100 µM
Cc1ccc(NC(c2ccccc2)c2ccc3cccnc3c2O)cc1 (stereo not drawn)	18.3 µM

Provide TGI values for the following items, in order.
1. Cc1cc2c(c3c1c1ccccc1n3C)C(=O)C=CC2=O
2. O=C(c1ccccc1)c1ccc(C(c2c(O)c3ccccc3oc2=O)c2c(O)c3ccccc3oc2=O)cc1
3. CNc1ncnc(Sc2nc(N)nc3nc[nH]c23)c1[N+](=O)[O-]

51.1 µM
39.5 µM
16.2 µM

====

# Test system: SR leukemia
# Test Description: NCI tumour cell line growth inhibition, 48 h; in the data active = GI50 below about 0.43 µM; inactive = the rest
Field 'call' accepts true (1) for active, false (0) for inactive

Recorded results for 2 molecules are shown here.
O=C(/C=C/c1ccco1)c1ccc(Nc2nc(Nc3ccc(F)cc3)nc(Nc3ccc(Cl)cc3)n2)cc1	false (0)
O=C(Nc1ccc(-c2nc3cc4ccccc4cc3[nH]2)cc1)c1cccc(Br)c1	false (0)

Next:
I would be grateful if you could indicate the recorded call for CNc1ccccc1C(=O)N/N=C/C=C/c1ccccc1 .
true (1)

====

Kindly state TGI for each of the entries shown.
# System: HS 578T breast
# Test Description: NCI tumour cell line growth inhibition, 48 h

Consider the following illustrative entries.
COc1cc(/C=C(/C)[N+](=O)[O-])ccc1O	> 28.4 µM
S=CN1CCCCC1	> 100 µM

--- query ---
# returns recorded TGI (system: HS 578T breast) for CCOC(=O)/C(C#N)=C/c1ccc2c(-c3c(OCC)ccc4cc(/C=C(\C#N)C(=O)OCC)ccc34)c(OCC)ccc2c1
> 100 µM

====

Kindly state TGI for each of the entries shown.
# Tested on: T-47D breast
# Test Description: NCI tumour cell line growth inhibition, 48 h

Consider the following illustrative entries.
c1ccc(COc2ccc(CC3SCCCS3)cc2)cc1	> 100 µM
Cc1[nH]c2ncn3nc(C(Cl)(Cl)Cl)nc3c2c1Cc1ccccc1	> 100 µM
COc1ccc(-c2ccc(C3CC(c4ccc(O)cc4)=NN3)o2)c([N+](=O)[O-])c1 (centres undefined)	> 100 µM

--- query ---
Recorded TGI of CC(=O)N=C(N=Nc1c(O)[nH]c2ccc(C)cc12)NC(C)=O , please.
> 100 µM

====

# Test system: TK-10 renal
# Test Description: NCI tumour cell line growth inhibition, 48 h
Test Readout: TGI

CN1CCCN2CCN(C)CCN(CC1)CC2	> 100 µM
CCNC(=O)C[C@@H]1N=C(c2ccc(Cl)cc2)c2cc(OC)ccc2-n2c(C)nnc21	> 53.8 µM
O=C(O)c1ccc(S(=O)(=O)c2ccccc2)c([N+](=O)[O-])c1	> 100 µM

Recorded TGI of Cn1cc(C(=O)c2nccc3c2cnc2ccccc23)ccc1=O , please.
> 100 µM

====

# Tested on: U251 CNS
# Test Description: NCI tumour cell line growth inhibition, 48 h
Test Readout: TGI

Nc1ccccc1C#CC#Cc1ccccc1N	21 µM
c1ccc(N=C2c3ccccc3CN2c2ccccc2)cc1	> 100 µM
CC1=C2C(O)C(C(C)C(=O)NCC(C)C)CCC2(C)C=CC1=O (centres undefined)	> 100 µM

Provide TGI values for the following items, in order.
1. CC(C)(C)OC(=O)[N+](=N)C(=O)C1CCC(=O)N1C(=O)OCc1ccccc1 (centres undefined)
2. Cc1ccc(S(=O)(=O)N/N=C(\CCN2CCCC2)CC(c2ccccc2)c2c(O)c3ccccc3oc2=O)cc1 (centres undefined)
3. O=C1C2C(C(=O)N1O)N(Cc1ccccc1)C(=O)N2Cc1ccccc1 (centres undefined)
4. CC(=O)N1CCC2(C=Nc3ccccc32)CC1
5. CC(C)C(C(=O)O)N(CC1(O)OCC(O)C(O)C1O)N=O (centres undefined)
6. CCNC(=O)C[C@@H]1N=C(c2ccc(Cl)cc2)c2cc(OC)ccc2-n2c(C)nnc21
7. CCN(CC)c1ccc(/C=C(\C#N)c2nc(N)nc(N3N=C(C)CC3(C)C)n2)cc1

> 100 µM
> 100 µM
> 100 µM
> 100 µM
> 100 µM
> 100 µM
26.1 µM

====

Kindly state TGI for each of the entries shown.
# Tested on: SK-OV-3 ovarian
# Test Description: NCI tumour cell line growth inhibition, 48 h

Consider the following illustrative entries.
S=c1ssc2c3ssc(=S)c3n(Cc3ccccc3)c12	> 100 µM
O=[N+]([O-])c1cnc(Sc2ccncn2)c([N+](=O)[O-])c1	31.1 µM
CCC1=C(C)/C(=C/c2[nH]c(C)c(C(=O)CCCCC(=O)OC)c2C)N=C1c1ccc[nH]1	> 80.6 µM
C[C@]12CC[C@@H]3c4ccc(O)cc4CC[C@H]3[C@@H]1C/C(=C\c1ccc([N+](=O)[O-])cc1)C2=O	> 100 µM
CCNC(=O)C[C@@H]1N=C(c2ccc(Cl)cc2)c2cc(OC)ccc2-n2c(C)nnc21	> 100 µM
Clc1ccc(-c2nn3c(CCCCCCCCc4nnc5sc(-c6ccc(Cl)cc6)nn45)nnc3s2)cc1	> 90.4 µM

Provide TGI values for the following items, in order.
1. c1ccc2c(c1)ccc1nc(-c3ccc4c(c3)OCO4)c3c(c12)CCCC3
2. c1ccc(N=C2c3ccccc3CN2c2ccccc2)cc1

["> 100 µM", "> 100 µM"]

====

# System: BT-549 breast
# Test Description: NCI tumour cell line growth inhibition, 48 h
Kindly state TGI for each of the entries shown.

Consider the following illustrative entries.
O=C(/C=C/c1ccco1)c1ccc(Nc2nc(Nc3ccc(F)cc3)nc(Nc3ccc(Cl)cc3)n2)cc1	> 29.6 µM
CCNC(=O)C[C@@H]1N=C(c2ccc(Cl)cc2)c2cc(OC)ccc2-n2c(C)nnc21	> 100 µM

--- query ---
Recorded TGI of COc1ccc(C(=O)Cn2c(C(=O)c3ccc(OC)cc3)nc3ccccc32)cc1 , please.
> 100 µM

====

# Test system: NCI-H460 lung
# Test Description: NCI tumour cell line growth inhibition, 48 h
Kindly state TGI for each of the entries shown.

Provide TGI values for the following items, in order.
1. CN(C1=NCCO1)c1cccc2ccccc12
2. O=C1C=CC(=O)c2c1ccc1c3ccccc3n(-c3ccccn3)c21
3. O=C(OCCN=C1c2ccccc2CCc2ccccc21)c1cc([N+](=O)[O-])cc([N+](=O)[O-])c1
4. C/C(=N/NC(=S)Nc1ccccc1Cl)c1ccccn1
5. CC(C(=O)N1C(=O)N(C(=O)C(C)C(O)c2ccccc2)C(c2ccccc2)C1c1ccccc1)C(O)c1ccccc1 (stereo not given)

> 10 µM
> 100 µM
> 31.6 µM
9.85 µM
19.9 µM

Provide TGI values for the following items, in order.
1. COc1cccc(N2C(=O)c3c(c4[nH]c5ccccc5c4c4ccc(C(C)(C)C)cc34)C2=O)c1
2. O=P(c1ccccc1)(c1ccccc1)C1CC=C(c2ccccc2)C2(CCCC2)C1 (stereo not given)

["> 100 µM", "> 100 µM"]

====

# Test system: PC-3 prostate
# Test Description: NCI tumour cell line growth inhibition, 48 h
Test Readout: TGI (µM)
Numbers only, in µM.

CCCCCCCCCCCCN1C(C)=CS/C1=C\C=C\c1scc(C)[n+]1CCCCCCCCCCCC	3.46

--- query ---
Recorded TGI of Cc1ccc(NC(c2ccccc2)c2ccc3cccnc3c2O)cc1 (stereo not given) , please.
14.3
